Biological target: T1, human SIRPγ isoform 1 (human, UniProt Q9P1W8 29-147)
T1 construct: also called SIRPg; sirpg
T1 sequence (Q9P1W8 29-147 limits assumed): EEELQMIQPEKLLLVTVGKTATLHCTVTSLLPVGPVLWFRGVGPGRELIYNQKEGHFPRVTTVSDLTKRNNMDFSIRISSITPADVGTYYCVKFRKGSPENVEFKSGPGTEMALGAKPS
Assay: SPR, Langmuir fit
MEASUREMENT_LABEL: koff (s⁻¹)
Reply numerically in s⁻¹, unit not repeated.

Examples from the recorded data:
BINDER | DATA_VALUE
S55 (scFv, V domains shown, also called clone 55) VH: DVQLVESGGGVVRPGESLRLSCAVSGFRFSSYAMSWVRQAPGKGLEWVSGISSGGDTYYVDSVKGRFTISRDNSKNTLYLQVNSLTAEDTAIYYCARETWNHLFDYWGLGTLVTVSS VL: ALTQPASVSANLGETVEITCSGGDSSSHYYGWYQQKSPGSAPVTVIYSDDERPSDIPSRFSGSASGSTATLTITGVRVEDEAIYYCGAYDGSTYANTFGAGTTLTVL | 4.69e-05
S60 (scFv, V domains shown, also called clone 60) VH: DVQLVDSGGGVVRPGESLRLSCAASGFTFSSYAMSWVRQAPGKGLEWLAGISAGGSDTYYIDSVKGRFTISRDNSKNSLYLQMNSLTAEDTAVYYCARETWNHLFDYWGLGTLVTVSS VL: ALTQPASVSANPGETVKITCSGGDYYSTYYGWYQQKSPGSAPVTVIHSDDKRPSDIPSRFSGSASGSAATLTITGVRVEDEAVYFCGAYDGRTYINTFGAGTTLTVL | 0.0001

Asked: Quick one: koff for S29 (scFv, V domains shown, also called clone 29) VH: DVQLVESGGGVVRPGESLRLSCAVSGFRFSSYAMSWVRQAPGKGLEWVSGISSDSDAYYVDSVKGRFTISRDNSKNTLYLQVNSLTAEDTAVYYCARETWNHLFDYWGLGTMVTVSS VL: ALTQPASVSANLGETVKITCSGGDSSSHYYGWFQQKSPGSAPVTLIYSDDERPSDIPSRFSGSASGSTATLTITGVRVEDEAIYFCGAYDGSTYTNTFGAGTTLTVL ?
Given back: 0.000216
